Sequence of the target: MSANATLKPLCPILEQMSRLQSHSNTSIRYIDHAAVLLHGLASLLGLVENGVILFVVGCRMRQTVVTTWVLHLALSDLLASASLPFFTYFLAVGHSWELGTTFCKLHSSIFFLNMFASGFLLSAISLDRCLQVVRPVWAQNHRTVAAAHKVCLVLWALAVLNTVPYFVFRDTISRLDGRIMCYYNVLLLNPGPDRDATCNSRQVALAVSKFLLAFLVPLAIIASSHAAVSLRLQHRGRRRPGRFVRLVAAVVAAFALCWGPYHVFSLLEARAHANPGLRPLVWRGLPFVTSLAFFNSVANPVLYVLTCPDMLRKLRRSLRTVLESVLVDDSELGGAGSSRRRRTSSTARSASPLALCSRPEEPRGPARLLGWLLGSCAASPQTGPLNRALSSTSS
pKi: −log10 of the molar value.
readout: pKi

Solved entries (count: 6):
* CCC(=O)N(c1ccc(Cl)cc1)[C@@H]1C[C@H](CO)N(C(=O)c2ccc(F)cc2)c2ccccc21 (racemic) | > 5.00
* COc1cccc(C(=O)N2c3ccccc3[C@@H](N(C(C)=O)c3ccccc3)C[C@H]2C)c1 | > 4.22
* CCC(=O)N(c1ccc(Cl)cc1)[C@@H]1C[C@H](C(F)(F)F)N(C(=O)c2ccc(F)cc2)c2ccc(OC)cc21 (racemic) | > 5.00
* CCC(=O)N(c1ccc(Cl)cc1)[C@@H]1C[C@H](CN(CC)CC)N(C(=O)c2ccc(F)cc2)c2ccccc21 (racemic) | > 5.00
* CC(=O)N(c1ccccc1)[C@@H]1C[C@H](C)N(C(=O)c2sc(C)nc2C)c2ccccc21 (racemic) | > 5.00
* COc1cccc(C(=O)N2c3ccccc3[C@@H](N(C(C)=O)c3ccccc3)C[C@@H]2C)c1 (racemic) | > 4.22

Entry CCC(=O)N(c1ccc(Cl)cc1)C1CC(C)N(C(=O)c2ccc(F)cc2)c2ccc(/C=C/C(=O)O)cc21 (racemic) ; pKi = > 5.00

Entry CCC(=O)N(c1ccccc1)[C@@H]1C[C@H](C)N(C(=O)c2cccc(Cl)c2)c2ccccc21 (racemic) ; pKi = > 5.00

Entry `Cc1ccc(C(=O)N2c3ccccc3[C@@H](N(C(=O)C(C)C)c3ccc(Cl)cc3)C[C@H]2C)s1` ; pKi = > 5.00
